experiment: NCI Yeast Anticancer Drug Screen. Data for the rad50 strain (AID 155);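 further: 0% = growth of vehicle-only cultures of the same strain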; settings: S. cerevisiae rad50 strain growth inhibition; at 5.0 µM (retest, dose inferred, filed as 0.5); hits give high values
About 79,000 compounds went through this panel and 15% of them were active in at least one assay; those are over-represented in the sample as a whole.
Each record here notes measured growth inhibition.
Measurement Type: growth inhibition (%)

# Compound, Measurement Type, Measured Result
measured = [
    ("O=C(CCCN1CCC(C(O)c2ccc(F)cc2)CC1)c1ccc(F)cc1 (stereo not drawn)", "growth inhibition", 37),
    ("CCOC(=O)c1ccc(-c2cccs2)n1C", "growth inhibition", -14),
    ("CCn1c(C)cc(=O)n1-c1ccc([N+](=O)[O-])cc1", "growth inhibition", -160),
    ("O=[N+]([O-])c1ccc(-c2ccc(-c3csc(Nc4ccccc4)n3)o2)cc1", "growth inhibition", 42),
    ("CN1c2ccccc2S(=O)(=O)n2c(CCc3ccccc3)nnc21", "growth inhibition", 1),
    ("O=C(O)C1OC(Oc2ccc3oc4ccccc4c(=O)c3c2)C(O)C(O)C1O (stereo not drawn)", "growth inhibition", -23),
    ("O=C1CSC(c2c[nH]c3ccccc23)N1c1cccc(Cl)c1 (stereo not drawn)", "growth inhibition", 10),
    ("NC(N)=NS(=O)(=O)c1ccc(N=Cc2c3ccccc3nc3cc(Cl)ccc23)cc1", "growth inhibition", 5),
]

These data points were gathered from PubChem BioAssay (NCI).
